- Tested on: Amaranthus blitum
- measurement_protocol: Soil treatment herbicidal test, weed killing rate, Amaranthus blitum
- Format: in vivo
- run_parameters: 672 h, 250 g per hectare, after 4 weeks, read-out: herbicidal activity (weed killing rate) with respect to Amaranthus blitum
result_type: pest or weed control at 250 g/ha

>>> assay_value("COC12OC1(c1ccc(C(F)(F)F)c3ncccc13)C=NN(C)C2=O (centres unmarked)")
"≥ 80%"
>>> assay_value("COCCOCc1nc(C(F)(F)F)ccc1C12C=NN(C)C(=O)C1(OC)O2 (centres unmarked)")
"≥ 80%"
>>> assay_value("COC12OC1(c1cc3cccnc3nc1C(F)(F)F)C=NN(C)C2=O (centres unmarked)")
"≥ 80%"
>>> assay_value("COC12OC1(c1ccc(C(F)(F)F)nc1S(=O)(=O)N1CCOCC1)C=NN(C)C2=O (centres unmarked)")
"≥ 80%"
>>> assay_value("COC12OC1(c1ncc(C(F)(F)F)cc1S(C)(=O)=O)C=NN(C)C2=O (centres unmarked)")
"≥ 80%"
>>> assay_value("COC12OC1(c1ccc(C(F)(F)F)nc1S(C)(=O)=O)C=NN(C)C2=O (centres unmarked)")
"≥ 80%"
>>> assay_value("COC12OC1(c1cc(C(F)(F)F)nn1CS(C)(=O)=O)C=NN(C)C2=O (centres unmarked)")
"≥ 80%"
>>> assay_value("COC12OC1(c1cnc(C(F)(F)F)cc1S(C)(=O)=O)C=NN(C)C2=O (centres unmarked)")
"≥ 80%"

The origin of these recorded values is patent US20240172752A1.
